Assay: NCI Yeast Anticancer Drug Screen. Data for the sgs1 mgt1 strain (AID 161);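 note: 0% = growth of cultures given vehicle only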
Conditions: S. cerevisiae sgs1 mgt1 strain, at 5.0 µM (retest, dose inferred, filed as 0.5), stronger effect = higher value
Protocol: Growth inhibition of yeast strains with defined genetic alterations is measured as a screen for potential anti-cancer activity. Selected strains with alterations in DNA damage repair or cell cycle control were exposed to compounds and growth inhibition was measured relative to vehicle treated controls. The strain used in this assay is sgs1 mgt1
About 79,000 compounds went through this panel and 15% of them were active in at least one assay; those are over-represented in the sample as a whole.
Attribute Measured: growth inhibition (%)
# number only, unit % dropped from output

The examples below pair each entry with its known result.
{"Compound": "CCOc1ccccc1/C=C1\\C=Nc2ccccc21", "Experimental Value": -6}
{"Compound": "CCNC(=S)N/N=C/c1ccccn1", "Experimental Value": -29}
{"Compound": "O=S1(=O)CC2C1C1(Cl)OC2(Cl)c2ccccc21 (centres undefined)", "Experimental Value": 2}
{"Compound": "COc1cc(C2c3cc4c(cc3C(OC3CCCCO3)C3COC(=O)C23)OCO4)cc(OC)c1OC (centres undefined)", "Experimental Value": -10}
{"Compound": "O=C(CCl)[O][Bi]([O]C(=O)CCl)([c]1ccccc1)([c]1ccccc1)[c]1ccccc1", "Experimental Value": 32}
{"Compound": "COc1cc(CNC(=O)CCCCCCCC/C=C/Br)ccc1O", "Experimental Value": -2}

Could you tell me which growth inhibition is on file for O=C1/C(=C\c2ccccc2)C(NC2CCCCC2)c2ccccc21 (centres undefined) ?
65

Could you tell me which growth inhibition is on file for O=c1ccnc(Nc2ccc[nH]c2=S)[nH]1 ?
-1

Could you tell me which growth inhibition is on file for Cc1ccc(SC2C(=O)C3(C)CCC2C3(C)C)cc1 (centres undefined) ?
-2

Could you tell me which growth inhibition is on file for Cc1cc(Cl)n2c(nc3ccccc32)c1C#N ?
16

Could you tell me which growth inhibition is on file for COc1ccc(C2COc3c(ccc(O)c3O)C2)cc1OC (centres undefined) ?
-3

Could you tell me which growth inhibition is on file for CCCCCN(CCC)CCCCCCCCCN1CCCc2cc(OC)ccc21 ?
2

Could you tell me which growth inhibition is on file for COc1cccc(NC(=S)NC2CC(C)CC(C)(C)C2)c1 (centres undefined) ?
-1

Could you tell me which growth inhibition is on file for Cc1nn(C(=O)c2ccncc2)c(C)c1N=Nc1ccccc1[N+](=O)[O-] ?
11

Could you tell me which growth inhibition is on file for CC1=C(C(=O)Nc2ccccc2C)C(c2ccccc2F)C(C(=O)Nc2ccccc2C)=C(C)N1 ?
-2

Could you tell me which growth inhibition is on file for BrCc1ccccc1C[P+](c1ccccc1)(c1ccccc1)c1ccccc1 ?
54

###

Assay: NCI Yeast Anticancer Drug Screen. Data for the mec2-1 strain (AID 157)
Conditions: S. cerevisiae mec2-1 strain, at 5.0 µM (retest, dose inferred, filed as 0.5), stronger effect = higher value
Compounds without any hit were thinned out: in the full panel of roughly 79,000, 15% have a hit.
Entries annotated with measured growth inhibition
# number only, unit % dropped from output

{"Molecule": "O=[N+]([O-])c1ccc(NS(=O)(=O)c2ccccc2)c(NS(=O)(=O)c2ccccc2)c1", "Scale Unit": "%", "growth inhibition": 14}

Could you tell me which growth inhibition is on file for Clc1ccccc1NN(Cc1ccccn1)c1ccccc1Cl ?
-6

Could you tell me which growth inhibition is on file for O=C1c2ccccc2C(=O)c2cc(N3C(=O)C=CC3=O)ccc21 ?
50

###

Test: NCI Yeast Anticancer Drug Screen. Data for the mlh1 rad18 strain (AID 175)
Settings: S. cerevisiae mlh1 rad18 strain growth inhibition; at 50.0 µM; stronger effect = higher value
About 79,000 compounds went through this panel and 15% of them were active in at least one assay; those are over-represented in the sample as a whole.
Attribute Measured: growth inhibition (%)
# number only, unit % dropped from output

The examples below pair each entry with its known result.
{"Compound": "C=C1CC2(C[C@@H](c3ccccc3)O[C@@H](c3ccccc3)C2)OC1=O (stereo not given in full)", "growth inhibition (%)": 92.5}
{"Compound": "O=C1Nc2c(Cl)cc(Cl)cc2/C1=N/N=C/c1ccccc1O", "growth inhibition (%)": 91}

Could you tell me which growth inhibition is on file for CC(C)(C)c1cc2c3c(c1)Oc1cc(C(C)(C)C)cc4c1C3(O)c1c(cc(C(C)(C)C)cc1O4)O2 ?
87.7

Could you tell me which growth inhibition is on file for Fc1cccc(C2SCc3nc4ccccc4n32)c1F (stereo not given) ?
92

Could you tell me which growth inhibition is on file for O=C1CSC2(CCN(CCCN3c4ccccc4Sc4ccc(Cl)cc43)CC2)N1 ?
91.2

###

Experiment: NCI Yeast Anticancer Drug Screen. Data for the bub3 strain (AID 167)
Conditions: S. cerevisiae bub3 mutant strain, at 50.0 µM (retest, dose inferred, filed as 5.0), stronger effect = higher value
About 79,000 compounds went through this panel and 15% of them were active in at least one assay; those are over-represented in the sample as a whole. The source made the active and inactive calls. Cut-off read from the data, not from the text of the source: active = growth inhibition above about 70%; inactive = the rest.
Entries annotated with measured growth inhibition

{"Compound": "CCCC/C=C1/CCC(CN(C)C)C1=O (configuration not stated)", "growth inhibition": "84% (active)"}
{"Compound": "O=[N+]([O-])c1cc(F)c(Sc2cc(Br)c([N+](=O)[O-])cc2F)cc1Br", "growth inhibition": "-3% (inactive)"}
{"Compound": "COC(=O)C1CCC(=O)N1C(c1ccc(OC)cc1)c1cc(OC)c(OC)c(OC)c1 (configuration not stated)", "growth inhibition": "41% (inactive)"}
{"Compound": "N=C(N)c1cccc(-c2ccc(-c3ccccc3)o2)c1", "growth inhibition": "71% (active)"}
{"Compound": "COc1cccc(C2c3cc4c(cc3OC(N3CCCC3)C2c2ccccc2)OCO4)c1O (configuration not stated)", "growth inhibition": "95% (active)"}

Could you tell me which growth inhibition is on file for CC(=O)N(C1=C(Cl)C(=O)c2ccccc2C1=O)c1ccc([N+](=O)[O-])cc1 ?
98% (active)

Could you tell me which growth inhibition is on file for CC1=NC(C)C(C)S1 (configuration not stated) ?
3% (inactive)

###

Assay: NCI Yeast Anticancer Drug Screen. Data for the sgs1 mgt1 strain (AID 161);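 note: 0% = growth of cultures given vehicle only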
Conditions: S. cerevisiae sgs1 mgt1 strain, at 5.0 µM (retest, dose inferred, filed as 0.5)
The panel holds about 79,000 compounds, 15% with a hit somewhere; the sample as a whole holds those more often. The source made the active and inactive calls. No stated cut-off is given here; in the data, active means growth inhibition above about 70%; inactive means the rest.
Give your call using only these classes: yes (1) for active, no (0) for inactive

Record excerpt, results attached:
{"Molecule": "CCC/C=C1/OC(=O)C2=C[C@H]3CC[C@]21[C@]1(OC(=O)C2=C1CCC=C2)[C@H]3CCC", "Classification": "no (0)"}
{"Molecule": "ClC1=C(Cl)C(Cl)(C(Cl)(Cl)Cl)C(Cl)=C1Cl", "Classification": "yes (1)"}
{"Molecule": "NCCCCC(N)C(=O)Nc1ccc2ccccc2c1 (centres undefined)", "Classification": "no (0)"}

# outcome recorded in this test, key = COC(=O)c1cccc2cccc(C(=O)Nc3ccc(C)cc3C)c12
no (0)

# outcome recorded in this test, key = CC(=O)Oc1c(Br)cc(Br)cc1Br
no (0)

# outcome recorded in this test, key = COc1cc2c(cc1OC)-c1nc(Nc3ccccc3)sc1CC2
no (0)

# outcome recorded in this test, key = COc1ccc(CCN2CC(=O)N3CSCC3C2=O)cc1OC (centres undefined)
no (0)

# outcome recorded in this test, key = S=C(N/N=C/c1ccco1)NC12CC3CC(CC(C3)C1)C2
yes (1)

# outcome recorded in this test, key = CC(=O)/C(=C\c1cccs1)C(=O)CCN(C)C
no (0)

# outcome recorded in this test, key = O=C(CBr)N1c2ccccc2Sc2ccc3ccccc3c21
yes (1)

# outcome recorded in this test, key = CC(C)OC(=O)c1ccccc1C(=C1C=C(Br)C(=O)C(Br)=C1)c1cc(Br)c(O)c(Br)c1
yes (1)

# outcome recorded in this test, key = Cc1c2cnccc2c(C)c2c1sc1ccccc12
yes (1)

# outcome recorded in this test, key = O=[N+]([O-])c1cc(C(F)(F)F)cc([N+](=O)[O-])c1CCl
yes (1)

# outcome recorded in this test, key = COc1cccc(/C=C2/Sc3scc(-c4ccccc4)[n+]3C2=O)c1O
no (0)

###

Experiment: NCI Yeast Anticancer Drug Screen. Data for the bub3 strain (AID 167)
Conditions: S. cerevisiae bub3 mutant strain, at 5.0 µM (retest, dose inferred, filed as 0.5)
Method: Growth inhibition of yeast strains with defined genetic alterations is measured as a screen for potential anti-cancer activity. Selected strains with alterations in DNA damage repair or cell cycle control were exposed to compounds and growth inhibition was measured relative to vehicle treated controls. The strain used in this assay is bub3
Compounds without any hit were thinned out: in the full panel of roughly 79,000, 15% have a hit. Calls of active or inactive are those of the source. Cut-off read from the data, not from the text of the source: active = growth inhibition above about 70%; inactive = the rest.
Give your call using only these classes: 1 (active), -1 (inactive)

Record excerpt, results attached:
{"Compound": "CC(C)=CCC(CC=C(C)C)c1ccncc1 (tested in a mixture with another compound)", "Classification": -1}
{"Compound": "O=C(O)CCC/C(=N\\Nc1ccccc1)C(=O)O", "Classification": -1}
{"Compound": "O=C(CC(=O)c1ccccc1)CC(=O)c1ccccc1Cl", "Classification": -1}

# outcome recorded in this test, key = COc1ccc(C2Oc3ccc(Cl)cc3C=C2[N+](=O)[O-])cc1OC (stereo not given)
1

# outcome recorded in this test, key = CC(C)=CCC(OC(=O)CC(C)C)C1=CC(=O)c2c(O)ccc(O)c2C1=O (stereo not given)
-1

# outcome recorded in this test, key = CCCCCCN(CCCCCC)P(=O)(N1CC1C)N1CC1C (stereo not given)
-1

# outcome recorded in this test, key = CCCC(=O)NCCNC(=O)CCC
-1

# outcome recorded in this test, key = O=S(=O)(NC(=S)Nc1ccccc1)c1ccc(Br)cc1
-1

# outcome recorded in this test, key = CCOC(=O)C(CC)(CCc1ccccc1[N+](=O)[O-])C(=O)OCC
-1

# outcome recorded in this test, key = Cc1cc(C(=O)O)c(C)cc1SSc1cc(C)c(C(=O)O)cc1C
-1
